- MEASURED_TARGET: Histone deacetylase 2 (Homo sapiens)
- Sequence (Q92769 whole entry): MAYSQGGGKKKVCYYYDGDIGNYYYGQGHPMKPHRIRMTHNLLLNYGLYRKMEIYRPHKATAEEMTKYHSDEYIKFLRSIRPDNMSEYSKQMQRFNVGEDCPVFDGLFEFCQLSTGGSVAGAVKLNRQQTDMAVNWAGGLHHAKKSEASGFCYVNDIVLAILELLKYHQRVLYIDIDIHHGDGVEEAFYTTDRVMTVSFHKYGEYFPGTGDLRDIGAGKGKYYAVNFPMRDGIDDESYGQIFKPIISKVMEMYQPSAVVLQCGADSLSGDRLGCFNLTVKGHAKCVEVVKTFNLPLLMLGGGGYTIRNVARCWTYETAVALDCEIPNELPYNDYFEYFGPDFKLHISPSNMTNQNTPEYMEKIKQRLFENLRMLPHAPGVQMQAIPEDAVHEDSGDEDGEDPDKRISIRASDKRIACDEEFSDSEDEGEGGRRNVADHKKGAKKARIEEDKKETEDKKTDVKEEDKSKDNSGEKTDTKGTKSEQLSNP
ENDPOINT_NAME: IC50 (nM)
Write down the numeric answer in nM and omit the unit.

Lab note: need IC50 for O=C(CCCCCCn1c2cc3c(cc2c2ncc4ccccc4c21)OCO3)NO on Histone deacetylase 2 (Homo sapiens), anyone have it?
3

###

- Test system: MCF7
- ASSAY_NAME: cells
- Type: functional, cell-based
- RUN_CONDITIONS: Homo sapiens, MCF7, 24 h
- Description: Antiproliferative activity against human MCF7 cells incubated for 24 hrs by MTT assay
ENDPOINT_NAME: pIC50
Formally, pIC50 is defined as -log10 of the concentration c, with c in mol/L.

Observe how each entry below is paired with its result.
{"SMILES_NOTATION": "CCCNNC(=O)CCCCn1c2cc3c(cc2c2[nH]c(=O)c4ccccc4c21)OCO3", "pIC50": 5.90}
{"SMILES_NOTATION": "CCCNNC(=O)c1ccc(Cn2c3cc4c(cc3c3[nH]c(=O)c5ccccc5c32)OCO4)cc1", "pIC50": 5.71}
{"SMILES_NOTATION": "CCCCNNC(=O)CCCCn1c2cc3c(cc2c2[nH]c(=O)c4ccccc4c21)OCO3", "pIC50": 5.39}

The record that follows has no pIC50 shown yet.
Lab note: need pIC50 for CCNNC(=O)CCCCn1c2cc3c(cc2c2[nH]c(=O)c4ccccc4c21)OCO3 on MCF7, anyone have it?
5.39

###

- MEASURED_TARGET: Histone deacetylase 1 (Homo sapiens, UniProt Q13547)
- Sequence (Q13547 whole entry): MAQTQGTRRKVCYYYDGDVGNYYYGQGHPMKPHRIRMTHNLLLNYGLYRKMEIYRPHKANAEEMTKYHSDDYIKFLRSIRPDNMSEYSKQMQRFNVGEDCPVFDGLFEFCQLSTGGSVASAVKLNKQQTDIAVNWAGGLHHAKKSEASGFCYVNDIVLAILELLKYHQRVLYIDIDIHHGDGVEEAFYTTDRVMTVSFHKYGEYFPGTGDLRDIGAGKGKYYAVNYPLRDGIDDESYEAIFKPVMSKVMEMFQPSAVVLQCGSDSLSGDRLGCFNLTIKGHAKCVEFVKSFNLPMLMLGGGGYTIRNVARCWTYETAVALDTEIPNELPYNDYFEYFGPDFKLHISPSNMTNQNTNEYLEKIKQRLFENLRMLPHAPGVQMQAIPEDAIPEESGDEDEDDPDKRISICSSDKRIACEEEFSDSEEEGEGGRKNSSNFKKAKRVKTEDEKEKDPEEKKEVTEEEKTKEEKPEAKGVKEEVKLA
ENDPOINT_NAME: IC50

Which IC50 value belongs to CCCCNNC(=O)CCCCn1c2cc3c(cc2c2[nH]c(=O)c4ccccc4c21)OCO3 ?
3320 nM

Which IC50 value belongs to CCCNNC(=O)CCCCCn1c2cc3c(cc2c2[nH]c(=O)c4ccccc4c21)OCO3 ?
500 nM

Which IC50 value belongs to CCCNNC(=O)c1ccc(Cn2c3cc4c(cc3c3[nH]c(=O)c5ccccc5c32)OCO4)cc1 ?
1090 nM

Which IC50 value belongs to CCNNC(=O)CCCCn1c2cc3c(cc2c2[nH]c(=O)c4ccccc4c21)OCO3 ?
1650 nM

###

- MEASURED_TARGET: Histone deacetylase 11 (Homo sapiens)
- Sequence (Q96DB2 whole entry): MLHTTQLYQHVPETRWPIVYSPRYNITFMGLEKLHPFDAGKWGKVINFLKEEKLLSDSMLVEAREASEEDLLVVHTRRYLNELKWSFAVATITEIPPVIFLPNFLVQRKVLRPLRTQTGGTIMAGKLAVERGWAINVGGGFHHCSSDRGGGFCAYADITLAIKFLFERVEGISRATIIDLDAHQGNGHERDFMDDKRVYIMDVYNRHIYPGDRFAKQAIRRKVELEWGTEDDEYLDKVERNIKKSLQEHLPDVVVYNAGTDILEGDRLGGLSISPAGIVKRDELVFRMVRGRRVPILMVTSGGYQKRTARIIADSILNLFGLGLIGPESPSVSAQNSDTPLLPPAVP
ENDPOINT_NAME: IC50

Which IC50 value belongs to O=C(CCCCCCn1c2cc3c(cc2c2ncc4ccccc4c21)OCO3)NO ?
> 5 µM

###

- Test system: MDA-MB-231
- ASSAY_NAME: cells
- Assay type: functional, cell-based
- RUN_CONDITIONS: Homo sapiens, MDA-MB-231, 24 h
ENDPOINT_NAME: pIC50
Formally, pIC50 is defined as -log10 of the concentration c, with c in mol/L.

Observe how each entry below is paired with its result.
{"COMPOUND": "CCCNNC(=O)CCCCn1c2cc3c(cc2c2[nH]c(=O)c4ccccc4c21)OCO3", "pIC50": 5.58}
{"COMPOUND": "COc1cc([C@@H]2c3cc4c(cc3[C@@H](O[C@@H]3O[C@@H]5CO[C@@H](C)O[C@H]5[C@H](O)[C@H]3O)[C@H]3COC(=O)[C@H]23)OCO4)cc(OC)c1O [ETOPOSIDE]", "pIC50": 5.54}
{"COMPOUND": "CCCNNC(=O)c1ccc(Cn2c3cc4c(cc3c3[nH]c(=O)c5ccccc5c32)OCO4)cc1", "pIC50": 5.35}
{"COMPOUND": "CCCNNC(=O)CCCCCn1c2cc3c(cc2c2[nH]c(=O)c4ccccc4c21)OCO3", "pIC50": 5.23}
{"COMPOUND": "CCCCNNC(=O)CCCCn1c2cc3c(cc2c2[nH]c(=O)c4ccccc4c21)OCO3", "pIC50": 5.36}

The record that follows has no pIC50 shown yet.
Which pIC50 value belongs to O=C(CCCCCCCn1c2cc3c(cc2c2ncc4ccccc4c21)OCO3)NO ?
5.65
